Target of assay: UniProt P04629
Experimental details: TrkA kinase enzyme inhibition
Type: biochemical
Test context: 30 nM; average of ≥3 experiments; read-out: TrkA % inh. at 30 nM
Measured attribute: inhibition at 0.03 µM (%)
Just the number in %, nothing appended.

Query: Quick check: inhibition at 0.03 µM of "CC(=O)Nc1ccc(C#Cc2cccc(NC(=O)N3CCN(c4ccccc4)C3=O)c2)cn1" ?
Response: 16

Query: // same read-out, input: "CC(=O)Nc1ccc(Oc2ccc(Cl)c(NC(=O)N3CCN(c4ccccc4)C3=O)c2)cn1"
Response: 0

Query: // same read-out, input: "CC(=O)Nc1ccc(Oc2cc(NC(=O)N3CCN(c4ccccc4)C3=O)ccc2C)cn1"
Response: 6

Query: // same read-out, input: "COc1ccc(NC(=O)N2CCN(c3ccccc3)C2=O)cc1Oc1ccc(NC(C)=O)nc1"
Response: 15

Query: // same read-out, input: "CC(=O)Nc1ccc(NC(=O)Nc2cccc(NC(=O)N3CCN(c4ccccc4)C3=O)c2)cn1"
Response: 5

Query: // same read-out, input: "CC(=O)Nc1ccc(Oc2cccc(NC(=O)N3CCN(c4ccccc4)C3=O)c2)cn1"
Response: 96

====

Experimental details: Rat pharmacokinetic profile
Assay type: in vivo
Test context: in vivo, oral, i.v. 2.58 mg/kg, p.o. 5.25 mg/kg
Measured attribute: bioavailability (%)
Just the number in %, nothing appended.

Query: Quick check: bioavailability of "CC(=O)Nc1ccc(Oc2cccc(NC(=O)N3CCN(c4ccccc4)C3=O)c2)cn1" ?
Response: 99

====

Experimental details: Rat pharmacokinetic profile
Format: in vivo
Test context: in vivo, iv, i.v. dose 2.58 mg/kg, read-out: T1/2, i.v. (converted)
Measured attribute: half-life (h)
Just the number in h, nothing appended.

Query: Quick check: half-life of "CC(=O)Nc1ccc(Oc2cccc(NC(=O)N3CCN(c4ccccc4)C3=O)c2)cn1" ?
Response: 1.5

====

Experimental details: Rat pharmacokinetic profile
Assay type: in vivo
Test context: in vivo, iv, i.v. dose 2.58 mg/kg, read-out: Vss i.v.
Measured attribute: Vd
Answer with the figure and its unit, nothing else.

Query: Quick check: Vd of "CC(=O)Nc1ccc(Oc2cccc(NC(=O)N3CCN(c4ccccc4)C3=O)c2)cn1" ?
Response: 3.7 L/kg

====

Please go through the items and note down their IC50.
Target of assay: c-Met (Homo sapiens, UniProt P08581)
Sequence (P08581 25-1390): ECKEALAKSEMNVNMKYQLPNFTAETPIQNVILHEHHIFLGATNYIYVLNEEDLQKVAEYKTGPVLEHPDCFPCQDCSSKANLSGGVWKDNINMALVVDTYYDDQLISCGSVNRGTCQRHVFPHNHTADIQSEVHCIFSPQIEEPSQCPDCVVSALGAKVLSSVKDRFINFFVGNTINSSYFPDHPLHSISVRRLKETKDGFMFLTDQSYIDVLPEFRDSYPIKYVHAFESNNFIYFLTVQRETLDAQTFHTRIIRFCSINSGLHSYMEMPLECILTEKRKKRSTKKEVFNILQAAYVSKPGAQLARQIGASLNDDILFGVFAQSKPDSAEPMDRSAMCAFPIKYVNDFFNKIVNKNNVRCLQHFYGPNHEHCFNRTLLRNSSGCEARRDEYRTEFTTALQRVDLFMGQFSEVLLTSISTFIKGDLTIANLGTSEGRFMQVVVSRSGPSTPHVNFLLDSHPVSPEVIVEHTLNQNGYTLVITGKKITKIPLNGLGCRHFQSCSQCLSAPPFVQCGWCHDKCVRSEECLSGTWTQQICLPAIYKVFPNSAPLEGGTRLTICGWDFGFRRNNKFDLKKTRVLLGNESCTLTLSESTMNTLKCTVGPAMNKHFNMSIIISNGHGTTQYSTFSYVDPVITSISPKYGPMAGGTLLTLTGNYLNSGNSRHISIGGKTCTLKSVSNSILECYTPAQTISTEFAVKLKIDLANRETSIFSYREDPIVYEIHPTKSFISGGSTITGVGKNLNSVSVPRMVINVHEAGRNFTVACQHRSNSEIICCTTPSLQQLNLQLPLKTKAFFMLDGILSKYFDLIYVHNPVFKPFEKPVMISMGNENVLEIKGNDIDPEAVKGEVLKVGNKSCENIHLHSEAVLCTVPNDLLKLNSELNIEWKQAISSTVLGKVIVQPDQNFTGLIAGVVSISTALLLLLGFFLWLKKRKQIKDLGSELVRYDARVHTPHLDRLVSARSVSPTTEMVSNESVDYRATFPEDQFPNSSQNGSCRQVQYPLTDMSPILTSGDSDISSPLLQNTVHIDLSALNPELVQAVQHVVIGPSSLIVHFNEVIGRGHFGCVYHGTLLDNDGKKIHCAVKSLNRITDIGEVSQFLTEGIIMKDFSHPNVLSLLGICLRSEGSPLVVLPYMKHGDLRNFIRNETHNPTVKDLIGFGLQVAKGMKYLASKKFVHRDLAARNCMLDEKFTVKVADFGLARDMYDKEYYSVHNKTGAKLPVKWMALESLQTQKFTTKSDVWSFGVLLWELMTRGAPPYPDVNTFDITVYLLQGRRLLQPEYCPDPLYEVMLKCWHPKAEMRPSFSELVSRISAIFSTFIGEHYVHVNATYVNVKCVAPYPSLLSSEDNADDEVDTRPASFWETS
Experimental details: c-Met kinase enzyme inhibition
Assay type: biochemical
Test context: average of ≥3 experiments
Just the number in nM, nothing appended.

Query: Quick check: IC50 of "O=C(Nc1cc(Oc2ccc(NC(=O)N3CCN(c4ccccc4)C3=O)cc2F)ccn1)N1CCCC1" ?
Response: 30

Query: // same read-out, input: "O=C(Nc1cc(Oc2ccc(NC(=O)N3CCN(c4ccccc4)C3=O)cc2F)ncn1)N1CCCC1"
Response: 50

Query: // same read-out, input: "COc1cc2nccc(Oc3ccc(NC(=O)N4CCN(c5ccccc5)C4=O)cc3F)c2cc1OC"
Response: 30

====

Target of assay: TrkA human enzyme (Homo sapiens)
Experimental details: TrkA kinase enzyme inhibition
Assay type: biochemical
Test context: 0.1 μM; average of ≥3 experiments; read-out: TrkA % inh. at 0.1 μM
Measured attribute: inhibition at 0.1 µM (%)
Just the number in %, nothing appended.

Query: Quick check: inhibition at 0.1 µM of "O=C(Nc1cc(Oc2ccc(NC(=O)N3CCN(c4ccccc4)C3=O)cc2F)ncn1)N1CCCC1" ?
Response: 16

Query: // same read-out, input: "CCn1cnc(-c2cc3nccc(Oc4ccc(NC(=O)N5CCN(c6ccccc6)C5=O)cc4F)c3s2)c1"
Response: 82

Query: // same read-out, input: "O=C(Nc1cc(Oc2ccc(NC(=O)N3CCN(c4ccccc4)C3=O)cc2F)ccn1)N1CCCC1"
Response: 49

Query: // same read-out, input: "CC(=O)Nc1ccc(Oc2cccc(NC(=O)N3CCN(c4ccccc4)C3=O)c2)cn1"
Response: 98

Query: // same read-out, input: "COc1cc2nccc(Oc3ccc(NC(=O)N4CCN(c5ccccc5)C4=O)cc3F)c2cc1OC"
Response: 94

====

Target of assay: TrkA human enzyme (Homo sapiens, UniProt P04629)
Sequence (P04629 33-796): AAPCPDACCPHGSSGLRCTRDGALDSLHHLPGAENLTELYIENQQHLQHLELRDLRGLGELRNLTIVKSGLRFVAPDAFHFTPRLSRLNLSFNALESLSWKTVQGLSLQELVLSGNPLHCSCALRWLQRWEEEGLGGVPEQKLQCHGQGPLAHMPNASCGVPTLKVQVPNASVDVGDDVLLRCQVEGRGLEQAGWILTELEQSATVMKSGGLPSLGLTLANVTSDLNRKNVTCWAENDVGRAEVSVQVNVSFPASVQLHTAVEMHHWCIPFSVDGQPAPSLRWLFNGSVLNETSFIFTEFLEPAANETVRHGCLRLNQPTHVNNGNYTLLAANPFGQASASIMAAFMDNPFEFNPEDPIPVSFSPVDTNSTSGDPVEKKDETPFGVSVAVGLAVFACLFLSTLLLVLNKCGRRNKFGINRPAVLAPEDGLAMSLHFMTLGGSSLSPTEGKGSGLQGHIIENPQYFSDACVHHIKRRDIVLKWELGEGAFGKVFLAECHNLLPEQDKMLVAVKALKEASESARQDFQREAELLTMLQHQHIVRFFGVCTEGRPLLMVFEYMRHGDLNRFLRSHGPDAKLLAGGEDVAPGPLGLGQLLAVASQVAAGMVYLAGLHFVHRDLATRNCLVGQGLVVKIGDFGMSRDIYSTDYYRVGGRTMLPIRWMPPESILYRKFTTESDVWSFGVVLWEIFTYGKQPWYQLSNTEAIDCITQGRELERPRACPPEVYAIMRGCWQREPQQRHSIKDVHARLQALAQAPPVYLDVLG
Please go through the items and note down their pIC50.
Please report pIC50 as the negative decimal logarithm of the molar concentration, giving only the number.

Query: Quick check: pIC50 of "Nc1ccc(Oc2cccc(NC(=O)N3CCN(c4ccccc4)C3=O)c2)cn1" ?
Response: 7.70

Query: // same read-out, input: "CNC(=O)Nc1ccc(Oc2cccc(NC(=O)N3CCN(c4ccccc4)C3=O)c2)cn1"
Response: 8.30

Query: // same read-out, input: "O=C(NCCN1CCCC1)Nc1ccc(Oc2cccc(NC(=O)N3CCN(c4ccc(F)cc4)C3=O)c2)cn1"
Response: 8.40

Query: // same read-out, input: "CNC(=O)Nc1ccc(Oc2cccc(NC(=O)N3CCN(c4ccc(F)cc4)C3=O)c2)cn1"
Response: 8.70

====

Target of assay: VEGFR2 (Homo sapiens, UniProt P35968)
Sequence (P35968 20-1356, species assumed): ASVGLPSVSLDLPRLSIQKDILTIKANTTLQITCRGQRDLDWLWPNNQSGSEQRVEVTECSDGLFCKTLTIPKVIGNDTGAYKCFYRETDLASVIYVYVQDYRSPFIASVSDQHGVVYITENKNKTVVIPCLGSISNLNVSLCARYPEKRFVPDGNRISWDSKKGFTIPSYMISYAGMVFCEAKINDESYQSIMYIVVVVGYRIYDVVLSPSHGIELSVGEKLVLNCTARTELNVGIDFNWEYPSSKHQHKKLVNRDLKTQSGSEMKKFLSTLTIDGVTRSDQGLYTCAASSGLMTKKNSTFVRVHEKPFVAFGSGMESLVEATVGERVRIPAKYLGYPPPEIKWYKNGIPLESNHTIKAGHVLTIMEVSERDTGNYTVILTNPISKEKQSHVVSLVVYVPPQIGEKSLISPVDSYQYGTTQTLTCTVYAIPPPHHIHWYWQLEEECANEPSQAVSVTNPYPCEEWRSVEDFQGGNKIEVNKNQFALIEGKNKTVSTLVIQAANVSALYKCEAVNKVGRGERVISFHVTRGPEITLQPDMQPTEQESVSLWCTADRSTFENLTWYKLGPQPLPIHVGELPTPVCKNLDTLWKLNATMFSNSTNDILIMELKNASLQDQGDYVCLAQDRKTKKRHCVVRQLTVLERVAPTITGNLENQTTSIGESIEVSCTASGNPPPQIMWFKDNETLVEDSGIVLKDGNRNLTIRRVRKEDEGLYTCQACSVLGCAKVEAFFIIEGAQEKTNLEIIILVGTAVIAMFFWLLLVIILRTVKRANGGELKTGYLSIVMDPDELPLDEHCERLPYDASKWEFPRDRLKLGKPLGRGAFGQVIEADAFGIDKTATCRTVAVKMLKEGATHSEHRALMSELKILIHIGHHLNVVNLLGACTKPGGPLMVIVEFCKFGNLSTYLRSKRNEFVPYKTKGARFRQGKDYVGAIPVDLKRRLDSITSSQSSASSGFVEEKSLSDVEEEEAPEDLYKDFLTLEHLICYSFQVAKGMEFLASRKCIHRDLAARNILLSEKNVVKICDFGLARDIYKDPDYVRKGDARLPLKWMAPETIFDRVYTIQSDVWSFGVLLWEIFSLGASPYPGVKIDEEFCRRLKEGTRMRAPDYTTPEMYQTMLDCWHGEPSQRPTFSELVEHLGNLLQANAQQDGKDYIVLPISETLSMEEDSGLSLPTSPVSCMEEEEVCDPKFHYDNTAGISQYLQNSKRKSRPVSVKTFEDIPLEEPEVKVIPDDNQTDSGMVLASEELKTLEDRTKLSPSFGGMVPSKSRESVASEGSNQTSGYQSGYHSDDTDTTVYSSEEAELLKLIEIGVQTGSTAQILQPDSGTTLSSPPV
Please go through the items and note down their IC50.
Just the number in nM, nothing appended.

Query: Quick check: IC50 of "O=C(Nc1cc(Oc2ccc(NC(=O)N3CCN(c4ccccc4)C3=O)cc2F)ccn1)N1CCCC1" ?
Response: 230

Query: // same read-out, input: "O=C(Nc1cc(Oc2ccc(NC(=O)N3CCN(c4ccccc4)C3=O)cc2F)ncn1)N1CCCC1"
Response: 150

Query: // same read-out, input: "CC(=O)Nc1ccc(Oc2cccc(NC(=O)N3CCN(c4ccccc4)C3=O)c2)cn1"
Response: 2500

Query: // same read-out, input: "CCn1cnc(-c2cc3nccc(Oc4ccc(NC(=O)N5CCN(c6ccccc6)C5=O)cc4F)c3s2)c1"
Response: 10
